Just for reference, PubChem BioAssay (NCI) is where these values come from.

Tested on: SK-MEL-5 melanoma
Assay: NCI tumour cell line growth inhibition, 48 h
metric name: TGI

1. NC(=O)c1[nH]cnc1/N=N/SCC(N)C(=O)O (stereo not drawn) : > 100 µM
2. O=C(O)c1oc(C(=O)O)c(C(=O)O)c1C(=O)O : > 100 µM
3. CN(CCCl)c1ccc(/C=C/C2=[N+](C)c3ccccc3C2(C)C)cc1 : 2.03 µM
4. CCS(=O)(=O)CCn1cnc2c1c(=O)n(C)c(=O)n2C : > 100 µM
5. CCOC(=O)NC(=O)c1cn(CCN2CCN(C(=O)CCCCCCCCCCNc3ncnc4nc[nH]c34)CC2)c(=O)[nH]c1=O : > 100 µM
6. O=[N+]([O-])c1ccc(Sc2c3ccccc3nc3ccccc23)nc1 : 30.7 µM
7. C=CCN1C(=O)CS/C1=N/NC(=O)C(O)(c1ccccc1)c1ccccc1 : > 10 µM
8. N#Cc1ccc(C(c2ccc(C#N)cc2)n2cncn2)cc1 : > 5000 µM

----------
Tested on: NCI-H226 lung
Test: NCI tumour cell line growth inhibition, 48 h
metric name: TGI

1) CCOC(=O)c1cnc(-n2[nH]c3c(c2=O)CCCC3)[nH]c1=O : > 100 µM
2) O=[N+]([O-])/C(C(Cl)=C(Cl)Cl)=C(/Sc1ccccc1)N1CCCCC1 : > 100 µM
3) COC(=O)C(Cc1nc2ccc(Cl)cc2[nH]c1=O)/C(=N/NC(N)=O)C(=O)Nc1ccc(Cl)cc1 (centres undefined) : > 100 µM
4) NC(=O)c1[nH]cnc1/N=N/SCC(N)C(=O)O (centres undefined) : > 100 µM
5) Cc1nc(N)sc1C(=O)Nc1cc(C(=O)NCCCN(C)C)n(C)c1 : > 100 µM
6) CC(C)C(/C=C/c1ccc(Br)cc1)=N\NC(N)=O : > 100 µM
7) CCc1c(Cc2cc(C)cc(C)c2)n2c(nc1=O)SCC2CBr (centres undefined) : > 50 µM
8) CCOC(=O)c1ccc(-n2c(SCC)nc3sc(C)c(C)c3c2=O)cc1 : > 100 µM
9) Cc1ccc(C)c(NC(=O)CCc2nc(=S)[nH][nH]2)c1 : > 100 µM
10) COc1cc2c(cc1OCc1ccccc1)NC(=S)[C@@H]1CCCN1C2=S : > 100 µM
11) CCCCC#CC#Cc1cccc(=O)o1 : 38.3 µM
12) Nc1c(C(=O)Nc2ccccc2F)sc2nc3c(cc12)C(=O)CCC3 : > 100 µM
13) NC(Cc1ccccc1)(C(=O)O)C(=O)O : > 100 µM
14) CCc1nc(Cl)nc(Cl)c1Cl : 14.9 µM

----------
Recorded TGI, one value per entry.
System: HT29 colon
Experiment: NCI tumour cell line growth inhibition, 48 h
metric name: TGI

1) CCS(=O)(=O)CCn1cnc2c1c(=O)n(C)c(=O)n2C : > 100 µM
2) COC(=O)c1ccc(Cc2ccc(C(=O)OC)o2)o1 : > 378 µM
3) Cc1ccc(S(=O)(=O)NC(=O)Nc2ccc(S(N)(=O)=O)cc2S(N)(=O)=O)cc1 : > 100 µM
4) OC1CN2Cc3cc4c(cc3[C@]13C=C[C@@H](O)CC23)OCO4 (stereo not given in full) : > 100 µM
5) Cc1ccsc1/C=N/Nc1nncc2ccccc12 : > 100 µM
